Assay: qHTS assay for identifying genotoxic compounds that show differential cytotoxicity against isogenic chicken DT40 cell lines with known DNA damage response pathways - Rad54/Ku70 mutant cell line (AID 743015); note: nearly all actives have a fitted effect of over 60% in size
Details: DT40 Rad54/Ku70 mutant viability, CellTiter-Glo, 40 h; series mostly up to 66.8 µM
Records with an inconclusive call do not appear. The source made the active and inactive calls. Calls come from the whole dose curve; as a rule, active = well fitted cell-killing curve with a large enough effect in the repeat runs; inconclusive = weak or mixed curves; inactive = no such curve, though single readings can be large or run the other way.
MEASURED METRIC: Potency

Consider the following illustrative entries.
> print(dat)
                                   compound    result
1            Cl/C(=C\n1cncn1)c1ccc(Cl)cc1Cl  inactive
2  O=C(c1ccccc1)c1ccc2n1CCC2C(=O)O (stereo not given)  inactive
3                      N=C(N=C(N)N)N1CCOCC1  inactive
4                                 C=CCCCCCC  inactive
5                       O=c1c2ccccc2nnn1CCl  inactive

Here is another compound to look at.
The value of Potency measured for the compound CC(=O)OC/C=C/c1ccccc1 turned out to be inactive
